tested on: KM12 colon; assay: NCI tumour cell line growth inhibition, 48 h
# TGI per entry

{"COMPOUND": "C=C1c2[nH]c3ccccc3c2CC(C(=O)O)N1C(O)c1ccc(S(=O)(=O)O)cc1 (stereo unspecified)", "TGI": "> 100 µM"}
{"COMPOUND": "O=C1/C(=C/c2ccc(Cl)cc2)N=C(c2ccccc2)N1/N=C/c1ccccc1O", "TGI": "33.3 µM"}
{"COMPOUND": "O=C1NC(=O)C(c2ccccc2)=C1Nc1ccccc1", "TGI": "> 25 µM"}
{"COMPOUND": "Cc1cc(C)c(NC(=O)/C=C/c2ccccc2)c(C)c1", "TGI": "> 100 µM"}
{"COMPOUND": "COC(=O)c1nc(C(=O)OC)c2c([nH]c3ccccc32)c1C(=O)OC", "TGI": "> 100 µM"}
{"COMPOUND": "C#C[C@]1(O)[C@@H](CO)O[C@@H](n2ccc(N)nc2=O)[C@@H]1O", "TGI": "4.4 µM"}

---

test system: IGROV1 ovarian; assay: NCI tumour cell line growth inhibition, 48 h; in the data active = GI50 below about 0.43 µM; inactive = the rest
Outcome codes: active, inactive

{"MOLECULE": "CCCOc1ccc(/C=N/Nc2cc(C)nc3ccc(Cl)cc23)cc1", "STUDY TARGET": "IGROV1 ovarian", "ASSIGNED CLASS": "inactive"}
{"MOLECULE": "C/C(=N\\O)c1cccc(Nc2cc(-c3ccccc3)nc3c(O)cccc23)c1", "STUDY TARGET": "IGROV1 ovarian", "ASSIGNED CLASS": "inactive"}
{"MOLECULE": "O=C1/C(=C\\c2ccccc2)CN(C(=O)c2ccccc2)C/C1=C\\c1ccccc1", "STUDY TARGET": "IGROV1 ovarian", "ASSIGNED CLASS": "inactive"}
{"MOLECULE": "COc1ccc(C2CC(c3ccc4ccccc4c3)=NN2c2nc(O)c(C3=c4cc(OC)ccc4=NC3=O)s2)cc1 (configuration not stated)", "STUDY TARGET": "IGROV1 ovarian", "ASSIGNED CLASS": "active"}
{"MOLECULE": "COc1cc(/C=C/C(=O)c2ccc(F)cc2)ccc1OCCCCCOc1cc2c(cc1OC)C(=O)N1CCCC1C=N2 (configuration not stated)", "STUDY TARGET": "IGROV1 ovarian", "ASSIGNED CLASS": "active"}
{"MOLECULE": "O=C1NC(=O)C(c2ccccc2)=C1Nc1ccccc1", "STUDY TARGET": "IGROV1 ovarian", "ASSIGNED CLASS": "inactive"}
{"MOLECULE": "CCN1C(=O)N(CC)C2C1NC(=S)N2/N=C/C=C/c1ccccc1OC (configuration not stated)", "STUDY TARGET": "IGROV1 ovarian", "ASSIGNED CLASS": "active"}

---

system: LOX IMVI melanoma; assay: NCI tumour cell line growth inhibition, 48 h
Reported TGI values follow for various molecules

{"MOLECULE": "Nc1nc(Br)nc2ncn(C3CC(O)C(CO)O3)c12 (stereo not given)", "STUDY TARGET": "LOX IMVI melanoma", "TGI": "> 100 µM"}
{"MOLECULE": "CN1c2ccccc2C(=O)NC12CCNCC2", "STUDY TARGET": "LOX IMVI melanoma", "TGI": "> 100 µM"}
{"MOLECULE": "CC(=O)O[C@H]1CC[C@@]2(C)C(=CC[C@@H]3[C@@H]2CC[C@](C)(c2nnc(C)o2)[C@H]3CC#N)C1", "STUDY TARGET": "LOX IMVI melanoma", "TGI": "> 100 µM"}
{"MOLECULE": "O=C1/C(=C/c2ccc(Cl)cc2)N=C(c2ccccc2)N1/N=C/c1ccccc1O", "STUDY TARGET": "LOX IMVI melanoma", "TGI": "31.4 µM"}
{"MOLECULE": "Cn1c(NCC(CN2CCCC2)OC(=O)c2ccccc2)cc(=O)n(C)c1=O (stereo not given)", "STUDY TARGET": "LOX IMVI melanoma", "TGI": "> 100 µM"}
